Where do the numbers come from? From ChEMBL document CHEMBL5390317.

protocol-description: Stability in rat plasma assessed as parent compound remaining after 5 hrs relative to control
Assay type: ADME, cell-free
test-parameters: read-out: Stability
experimental-endpoint: remaining at 5 h (%)
Please state the figure in %; there is no need to write the unit.

Which remaining at 5 h value belongs to CN(C)CC(=O)Nc1cc(F)c2c(c1)CC(CNCCC1CN(c3cnc4c(n3)NC(=O)CO4)C(=O)O1)C2 (stereo unspecified) ?
99

* * *

measured-on: CYP3A4 (Homo sapiens)
Sequence (P08684 whole entry): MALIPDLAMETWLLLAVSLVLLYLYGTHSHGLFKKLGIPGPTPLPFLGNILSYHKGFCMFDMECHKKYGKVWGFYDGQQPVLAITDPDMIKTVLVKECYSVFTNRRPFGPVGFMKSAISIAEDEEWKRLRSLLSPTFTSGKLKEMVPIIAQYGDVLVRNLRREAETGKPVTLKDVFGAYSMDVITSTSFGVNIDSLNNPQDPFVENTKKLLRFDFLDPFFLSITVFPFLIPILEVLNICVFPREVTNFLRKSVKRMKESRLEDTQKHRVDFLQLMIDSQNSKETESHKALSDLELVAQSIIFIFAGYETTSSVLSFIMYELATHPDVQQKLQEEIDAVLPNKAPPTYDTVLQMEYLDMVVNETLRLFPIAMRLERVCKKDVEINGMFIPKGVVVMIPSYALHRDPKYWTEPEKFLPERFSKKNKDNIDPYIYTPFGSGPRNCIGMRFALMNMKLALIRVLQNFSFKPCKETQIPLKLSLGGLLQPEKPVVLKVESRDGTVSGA
protocol-description: Inhibition of CYP3A4 (unknown origin) at 10 uM relative to control
Type: ADME
experimental-endpoint: inhibition at 10 µM

Which inhibition at 10 µM value belongs to NC1(COc2cc(F)c3c(c2)CC(CNCCC2CN(c4cnc5c(n4)NC(=O)CO5)C(=O)O2)C3)CC1 (stereo unspecified) ?
< 25%

* * *

measured-on: UniProt Q12809
Sequence (Q12809 whole entry): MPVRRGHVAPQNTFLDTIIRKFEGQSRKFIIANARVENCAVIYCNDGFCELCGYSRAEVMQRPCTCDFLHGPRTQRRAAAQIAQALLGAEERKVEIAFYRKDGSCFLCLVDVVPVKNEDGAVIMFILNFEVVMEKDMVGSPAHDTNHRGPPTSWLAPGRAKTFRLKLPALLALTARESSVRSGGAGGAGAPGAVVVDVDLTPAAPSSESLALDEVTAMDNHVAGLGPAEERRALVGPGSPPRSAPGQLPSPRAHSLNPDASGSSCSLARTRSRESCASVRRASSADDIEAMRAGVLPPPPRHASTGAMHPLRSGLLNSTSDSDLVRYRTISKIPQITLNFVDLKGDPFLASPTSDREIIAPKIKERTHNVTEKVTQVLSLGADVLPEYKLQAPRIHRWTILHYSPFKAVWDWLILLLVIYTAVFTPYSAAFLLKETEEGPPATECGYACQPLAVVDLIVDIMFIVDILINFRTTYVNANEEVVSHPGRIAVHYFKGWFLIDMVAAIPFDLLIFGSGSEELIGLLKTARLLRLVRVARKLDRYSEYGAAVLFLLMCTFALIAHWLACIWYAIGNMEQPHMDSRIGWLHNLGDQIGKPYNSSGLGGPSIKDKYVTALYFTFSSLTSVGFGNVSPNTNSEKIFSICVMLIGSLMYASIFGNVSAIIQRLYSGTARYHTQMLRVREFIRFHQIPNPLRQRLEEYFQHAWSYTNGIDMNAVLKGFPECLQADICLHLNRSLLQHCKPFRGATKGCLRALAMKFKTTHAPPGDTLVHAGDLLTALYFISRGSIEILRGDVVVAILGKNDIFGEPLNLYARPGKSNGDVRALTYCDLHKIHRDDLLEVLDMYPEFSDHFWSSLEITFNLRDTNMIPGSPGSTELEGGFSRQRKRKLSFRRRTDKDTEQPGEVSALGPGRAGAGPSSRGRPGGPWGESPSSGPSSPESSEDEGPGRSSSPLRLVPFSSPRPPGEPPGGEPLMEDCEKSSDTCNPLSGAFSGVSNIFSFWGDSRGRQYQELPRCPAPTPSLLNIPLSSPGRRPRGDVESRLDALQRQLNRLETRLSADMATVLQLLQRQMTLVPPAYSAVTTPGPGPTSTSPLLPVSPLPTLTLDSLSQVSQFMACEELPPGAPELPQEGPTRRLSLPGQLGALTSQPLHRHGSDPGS
protocol-description: Inhibition of hERG potassium channel expressed in CHO cells by electrophysiological patch clamp assay
experimental-endpoint: IC50

Which IC50 value belongs to CC(N)COc1cc(F)c2c(c1)CC(CNCCC1CN(c3ccc4c(n3)NC(=O)CO4)C(=O)O1)C2 (configuration not stated) ?
> 20 µM

Which IC50 value belongs to CC(C)(N)COc1cc(C#N)c2c(c1)CC(CNCCC1CN(c3ccc4c(n3)NC(=O)CO4)C(=O)O1)C2 (configuration not stated) ?
> 20 µM

Which IC50 value belongs to N#Cc1cc(OC2CNC2)cc2c1CC(CNCCC1CN(c3ccc4c(n3)NC(=O)CO4)C(=O)O1)C2 (configuration not stated) ?
> 20 µM

Which IC50 value belongs to C[C@@H](C(=O)Nc1cc(F)c2c(c1)CC(CNCCC1CN(c3cnc4c(n3)NC(=O)CO4)C(=O)O1)C2)N(C)C (stereo in doubt; 2i) ?
105 µM

Which IC50 value belongs to NC1(COc2cc(F)c3c(c2)CC(CNCCC2CN(c4ccc5c(n4)NC(=O)CO5)C(=O)O2)C3)CC1 (configuration not stated) ?
> 10 µM

Which IC50 value belongs to CS(=O)(=O)NCCOc1cc(C#N)c2c(c1)CC(CNCCC1CN(c3ccc4c(n3)NC(=O)CO4)C(=O)O1)C2 (configuration not stated) ?
> 20 µM

Which IC50 value belongs to C[C@@H](C(=O)Nc1cc(F)c2c(c1)CC(CNCCC1CN(c3cnc4c(n3)NC(=O)CO4)C(=O)O1)C2)N(C)C (stereo in doubt; 2j) ?
178 µM

* * *

Assignment: determine reported MIC for the given compounds.
Tested on: Staphylococcus aureus
protocol-description: Antibacterial activity against Staphylococcus aureus ATCC 29213 assessed as inhibition in bacterial growth incubated for 20 to 24 hrs by CLSI based broth microdilution method
Format: functional
test-parameters: Staphylococcus aureus, ATCC 29213; time 20-24 hrs; read-out: MIC
Please state the figure in µg/mL; there is no need to write the unit.

State its MIC on Staphylococcus aureus: CC(C)(N)COc1cc(C#N)c2c(c1)CC(CNCCC1CN(c3ccc4c(n3)NC(=O)CO4)C(=O)O1)C2 (stereo not drawn)
0.125

State its MIC on Staphylococcus aureus: C[C@@H](C(=O)Nc1cc(F)c2c(c1)CC(CNCCC1CN(c3cnc4c(n3)NC(=O)CO4)C(=O)O1)C2)N(C)C (stereo in doubt; 2i)
0.25

State its MIC on Staphylococcus aureus: CN(C)CC(=O)Nc1cc(F)c2c(c1)CC(CNCCC1CN(c3cnc4c(n3)NC(=O)CO4)C(=O)O1)C2 (stereo not drawn)
0.5

State its MIC on Staphylococcus aureus: N#Cc1cc(OCCN)cc2c1CC(CNCCC1CN(c3ccc4c(n3)NC(=O)CO4)C(=O)O1)C2 (stereo not drawn)
0.5
